The reported numbers originate from ChEMBL document CHEMBL1759905.

Molecular target: Glucocorticoid receptor (Homo sapiens)
Sequence (P04150 whole entry): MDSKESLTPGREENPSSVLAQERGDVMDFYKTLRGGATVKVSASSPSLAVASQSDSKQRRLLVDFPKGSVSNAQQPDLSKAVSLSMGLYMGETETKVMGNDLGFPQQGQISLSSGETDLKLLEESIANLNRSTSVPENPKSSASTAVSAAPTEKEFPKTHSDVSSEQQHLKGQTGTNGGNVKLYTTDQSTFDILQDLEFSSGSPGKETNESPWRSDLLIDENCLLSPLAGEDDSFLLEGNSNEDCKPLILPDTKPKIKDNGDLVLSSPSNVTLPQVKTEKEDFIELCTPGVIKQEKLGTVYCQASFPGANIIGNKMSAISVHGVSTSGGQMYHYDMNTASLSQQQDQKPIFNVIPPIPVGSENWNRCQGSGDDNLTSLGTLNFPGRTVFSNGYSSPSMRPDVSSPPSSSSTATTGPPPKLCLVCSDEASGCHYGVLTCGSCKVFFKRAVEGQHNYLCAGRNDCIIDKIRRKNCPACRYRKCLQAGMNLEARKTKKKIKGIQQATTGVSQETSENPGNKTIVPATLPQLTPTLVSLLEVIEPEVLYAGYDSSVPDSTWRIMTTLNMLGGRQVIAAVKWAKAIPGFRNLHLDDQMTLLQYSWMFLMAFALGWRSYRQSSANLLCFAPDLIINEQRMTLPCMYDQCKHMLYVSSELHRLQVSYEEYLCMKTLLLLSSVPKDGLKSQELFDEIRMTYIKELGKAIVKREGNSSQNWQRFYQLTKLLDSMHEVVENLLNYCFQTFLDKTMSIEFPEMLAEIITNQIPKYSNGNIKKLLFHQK
Assay: Transrepression activity at glucocorticoid receptor in human HepG2 cells assessed as inhibition of TNFalpha/IL1beta-stimulated NFkappaB-dependent E-selectin repression by luciferase reporter gene assay
Type: cell-based
pIC50: −log10 of the molar value.
observed.property: pIC50

> print(dat)
                                   molecule                           target.entity  observed.property  number
1  CO/N=C1\CC(C)(C)Nc2cc(F)c(-c3cccc4cc[nH]c34)c(F)c21  Glucocorticoid receptor (Homo sapiens)              pIC50    7.38

(P) CO/N=C1/c2c(cc(F)c(-c3cccc4c(Cl)c[nH]c34)c2F)NC(C)(C)C1O (stereo not drawn)
(Q) CC1(C)C/C(=N\OC(C)(C)C)c2c(cc(F)c(-c3cccc4c(Cl)c[nH]c34)c2F)N1
q: Problem: Given the entries P and Q , determine which has the lower reported pIC50. State your choice using its label.
a: P

(I) CC1(C)C/C(=N\OC(C)(C)C)c2c(cc(F)c(-c3cccc4cc[nH]c34)c2F)N1
(II) Cc1c[nH]c2c(-c3c(F)cc4c(c3F)/C(=N/Oc3ccccc3)CC(C)(C)N4)cccc12
(III) Cc1c[nH]c2c(-c3c(F)cc4c(c3F)/C(=N/OC(C)(C)CO)CC(C)(C)N4)cccc12
q: With regard to pIC50, arrange the entries in ascending order, please. Returns: the labels arranged in the requested order.
a: II, III, I
(II: 7.29, III: 7.92, I: 8.46)

(P) Cc1c[nH]c2c(-c3c(F)cc4c(c3F)/C(=N/OC(C)C)CC(C)(C)N4)cccc12
(Q) Cc1c[nH]c2c(-c3c(F)cc4c(c3F)/C(=N/OCc3ccccc3)CC(C)(C)N4)cccc12
(R) CCO/N=C1/c2c(cc(F)c(-c3cccc4c(C)c[nH]c34)c2F)NC(C)(C)C1O (racemic)
q: Ordering criterion: pIC50; begin with the maximum. Returns: the labels arranged in the requested order.
a: R, P, Q

----------
Molecular target: Glucocorticoid receptor (Homo sapiens) (UniProt P04150)
Test: Transrepression activity at glucocorticoid receptor in human HepG2 cells assessed as inhibition of TNFalpha/IL1beta-stimulated NFkappaB-dependent E-selectin repression by luciferase reporter gene assay relative to Dexamethasone
Type: cell-based
Design: scale not given: the % may be the effect or the level left
observed.property: Activity (%)

Answered examples (5):
> print(dat)
                                   molecule  number
1  CCO/N=C1\CC(C)(C)Nc2cc(F)c(-c3cccc4cc[nH]c34)c(F)c21      91
2  Cc1c[nH]c2c(-c3c(F)cc4c(c3F)/C(=N/OC(C)(C)C)CC(C)(C)N4)cccc12      91
3  Cc1c[nH]c2c(-c3c(F)cc4c(c3F)/C(=N/OC(C)C)CC(C)(C)N4)cccc12      90
4  COC(=O)C(C)(C)O/N=C1\CC(C)(C)Nc2cc(F)c(-c3cccc4c(C)c[nH]c34)c(F)c21      87
5  CC1(C)C/C(=N\OC(C)(C)C)c2c(cc(F)c(-c3cccc4cc[nH]c34)c2F)N1      93

(I) CO/N=C1/c2c(cc(F)c(-c3cccc4c(C)c[nH]c34)c2F)NC(C)(C)C1O (racemic)
(II) Cc1c[nH]c2c(-c3c(F)cc4c(c3F)/C(=N/Oc3ccccc3)CC(C)(C)N4)cccc12
q: Problem: Given the entries I and II , determine which has the lower reported Activity. State your choice using its label.
a: II
(II: 67%, I: 96%)

----------
Molecular target: Glucocorticoid receptor (Homo sapiens, UniProt P04150)
Sequence (P04150 whole entry): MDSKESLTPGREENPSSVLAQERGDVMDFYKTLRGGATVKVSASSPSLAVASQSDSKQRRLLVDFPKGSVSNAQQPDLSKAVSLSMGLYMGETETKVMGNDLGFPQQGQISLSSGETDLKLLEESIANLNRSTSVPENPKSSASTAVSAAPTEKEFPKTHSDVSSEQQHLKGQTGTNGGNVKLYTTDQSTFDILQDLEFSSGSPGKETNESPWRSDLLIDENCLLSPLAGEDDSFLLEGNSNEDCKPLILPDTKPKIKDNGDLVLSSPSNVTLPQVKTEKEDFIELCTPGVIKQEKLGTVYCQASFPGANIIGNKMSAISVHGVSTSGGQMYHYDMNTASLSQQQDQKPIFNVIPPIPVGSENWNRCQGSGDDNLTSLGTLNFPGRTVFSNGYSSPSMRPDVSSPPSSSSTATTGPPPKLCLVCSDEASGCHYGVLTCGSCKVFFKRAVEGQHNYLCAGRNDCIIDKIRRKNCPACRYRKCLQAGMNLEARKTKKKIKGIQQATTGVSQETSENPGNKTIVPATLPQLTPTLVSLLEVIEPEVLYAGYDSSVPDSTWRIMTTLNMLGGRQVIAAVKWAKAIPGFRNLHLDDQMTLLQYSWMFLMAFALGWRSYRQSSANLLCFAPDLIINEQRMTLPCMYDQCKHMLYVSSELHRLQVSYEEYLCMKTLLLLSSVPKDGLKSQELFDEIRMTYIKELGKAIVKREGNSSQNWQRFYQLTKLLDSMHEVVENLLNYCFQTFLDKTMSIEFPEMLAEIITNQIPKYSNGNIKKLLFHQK
Test: Agonist activity at glucocorticoid receptor in human HepG2 cells co-transfected with PEPCK assessed as GRE activation by luciferase reporter gene assay
Assay type: functional, cell-based
pEC50: −log10 of the molar value.
observed.property: pEC50

Answered examples (4):
> print(dat)
                                   compound  number
1  Cc1c[nH]c2c(-c3c(F)cc4c(c3F)/C(=N/OC(C)(C)CO)CC(C)(C)N4)cccc12    6.46
2  Cc1c[nH]c2c(-c3c(F)cc4c(c3F)/C(=N/OC(C)(C)C)CC(C)(C)N4)cccc12    7.15
3  CCO/N=C1/c2c(cc(F)c(-c3cccc4c(C)c[nH]c34)c2F)NC(C)(C)C1O (racemic)    6.94
4  C[C@H]1c2c(cc(F)c(-c3cccc4cc[nH]c34)c2F)NC(C)(C)[C@@H]1O    7.28

(I) Cc1c[nH]c2c(-c3c(F)cc4c(c3F)/C(=N/OC(C)C)CC(C)(C)N4)cccc12
(II) CC1(C)C/C(=N\OC(C)(C)C)c2c(cc(F)c(-c3cccc4c(Cl)c[nH]c34)c2F)N1
(III) CO/N=C1/c2c(cc(F)c(-c3cccc4c(C)c[nH]c34)c2F)NC(C)(C)C1O (racemic)
q: With regard to pEC50, arrange the entries in ascending order, please. Returns: the labels arranged in the requested order.
a: III, I, II

----------
Target: Glucocorticoid receptor (Homo sapiens)
Experiment: Transrepression activity at glucocorticoid receptor in human HepG2 cells assessed as inhibition of TNFalpha/IL1beta-stimulated NFkappaB-dependent E-selectin repression by luciferase reporter gene assay relative to Dexamethasone
Type: cell-based
Parameters: scale not given: the % may be the effect or the level left
observed.property: Activity (%)

> print(dat)
                                   compound  observed.property  number
1  Cc1c[nH]c2c(-c3c(F)cc4c(c3F)/C(=N/OC(C)(C)CO)CC(C)(C)N4)cccc12           Activity      91
2  CC1(C)C/C(=N\OC(C)(C)C)c2c(cc(F)c(-c3cccc4c(Cl)c[nH]c34)c2F)N1           Activity      94
3  CO/N=C1\CC(C)(C)Nc2cc(F)c(-c3cccc4cc[nH]c34)c(F)c21           Activity      83
4  CCO/N=C1/c2c(cc(F)c(-c3cccc4c(C)c[nH]c34)c2F)NC(C)(C)C1O (racemic)           Activity      98
